# Tested on: Staphylococcus aureus
# test_description: Antibacterial activity against Staphylococcus aureus UC 9218 in the presence of 0% serum
# Assay type: functional
quantity_kind: MIC (µg/mL)
Answers are plain numbers, in µg/mL.

Some solved entries appear below for comparison.
* Cc1ccccc1NCCc1cccc(C(F)(F)F)c1 | 4
* c1ccc(-c2ccc(CCNc3cccc4ccccc34)cc2)cc1 | 8
* CC(=O)C(C#N)C(=O)N(CCc1cccc(C(F)(F)F)c1)c1cccc2ccccc12 (centres undefined) | 8
* O=C(CC(=O)C(F)(F)F)N(CCc1cccc(C(F)(F)F)c1)c1cccc2ccccc12 | 2
* CCc1cccc2ccccc12 | 128
* Clc1ccc(CCNc2cccc3ccccc23)c(Cl)c1 | 2
* FC(F)(F)c1cccc(CNc2cccc3ccccc23)c1 | 2
* FC(F)(F)c1cccc(CCNc2ccc3ccccc3c2)c1 | 4

Now take the following molecule into account.
Per the record, COc1ccc(OC)c(CCNc2cccc3ccccc23)c1 has MIC of 16

====

# System: Enterococcus faecalis
# test_description: Evaluated for its antibacterial activity against Enterococcus faecalis UC 9217
# Format: functional
Consider the following compounds; for each one, report its MIC.
One number for each entry, in µg/mL.

• CCc1cccc2ccccc12 = 128

Provide reported MIC for each item, in the same order as listed.
1. COc1ccc(OC)c(CCNc2cccc3ccccc23)c1
2. FC(F)(F)c1cccc(CNc2cccc3ccccc23)c1
3. CN[C@H](CC(C)C)C(=O)N[C@H]1C(=O)N[C@@H](CC(N)=O)C(=O)N[C@H]2C(=O)N[C@H]3C(=O)N[C@H](C(=O)N[C@H](C(=O)O)c4cc(O)cc(O)c4-c4cc3ccc4O)[C@H](O)c3ccc(c(Cl)c3)Oc3cc2cc(c3O[C@@H]2O[C@H](CO)[C@@H](O)[C@H](O)[C@H]2O[C@H]2C[C@](C)(N)[C@H](O)[C@H](C)O2)Oc2ccc(cc2Cl)[C@H]1O [VANCOMYCIN]
4. O=C(CC(=O)C(F)(F)F)N(CCc1cccc(C(F)(F)F)c1)c1cccc2ccccc12
5. c1ccc(-c2ccc(CCNc3cccc4ccccc34)cc2)cc1
6. Cc1ccccc1NCCc1cccc(C(F)(F)F)c1
7. Clc1ccc(CCNc2cccc3ccccc23)c(Cl)c1
8. CC(=O)C(C#N)C(=O)N(CCc1cccc(C(F)(F)F)c1)c1cccc2ccccc12 (stereo not given)

[16, 2, 1, 4, 2, 2, 1, 4]

====

Consider the following compounds; for each one, report its MIC.
# System: Staphylococcus aureus
# test_description: Antibacterial activity against Staphylococcus aureus UC 9218 in the presence of 5% serum
# Assay type: functional
Give bare numbers, in µg/mL.

Some solved entries appear below for comparison.
- FC(F)(F)c1cccc(CCNc2ccc3ccccc3c2)c1: 32
- c1ccc(-c2ccc(CCNc3cccc4ccccc34)cc2)cc1: 64
- COc1ccc(OC)c(CCNc2cccc3ccccc23)c1: 32
- CC(=O)C(C#N)C(=O)N(CCc1cccc(C(F)(F)F)c1)c1cccc2ccccc12 (stereo not drawn): 128
- Cc1ccccc1NCCc1cccc(C(F)(F)F)c1: 16

Provide reported MIC for each item, in the same order as listed.
1. Clc1ccc(CCNc2cccc3ccccc23)c(Cl)c1
2. O=C(CC(=O)C(F)(F)F)N(CCc1cccc(C(F)(F)F)c1)c1cccc2ccccc12

1. 16
2. 16

====

# Tested on: Streptococcus pneumoniae
# test_description: Evaluated for its antibacterial activity against Streptococcus pneumoniae UC 9912
# Format: functional
quantity_kind: MIC (µg/mL)
Answers are plain numbers, in µg/mL.

Some solved entries appear below for comparison.
* FC(F)(F)c1cccc(CNc2cccc3ccccc23)c1 | 8
* CCc1cccc2ccccc12 | 32
* c1ccc(-c2ccc(CCNc3cccc4ccccc34)cc2)cc1 | 16
* FC(F)(F)c1cccc(CCNc2ccc3ccccc3c2)c1 | 2

Provide reported MIC for each item, in the same order as listed.
1. C[S+]([O-])CC(=O)N(CCc1cccc(C(F)(F)F)c1)c1cccc2ccccc12 (stereo not given)
2. N#CCC(=O)N(CCc1cccc(C(F)(F)F)c1)c1cccc2ccccc12
3. O=C(CC(=O)C(F)(F)F)N(CCc1cccc(C(F)(F)F)c1)c1cccc2ccccc12
4. Cc1ccccc1NCCc1cccc(C(F)(F)F)c1
5. CC(=O)CC(=O)N(CCc1cccc(C(F)(F)F)c1)c1cccc2ccccc12

1: 64; 2: 16; 3: 8; 4: 1; 5: 32

Provide reported MIC for each item, in the same order as listed.
1. Clc1ccc(CCNc2cccc3ccccc23)c(Cl)c1
2. CC(=O)C(C#N)C(=O)N(CCc1cccc(C(F)(F)F)c1)c1cccc2ccccc12 (stereo not given)
3. CN[C@H](CC(C)C)C(=O)N[C@H]1C(=O)N[C@@H](CC(N)=O)C(=O)N[C@H]2C(=O)N[C@H]3C(=O)N[C@H](C(=O)N[C@H](C(=O)O)c4cc(O)cc(O)c4-c4cc3ccc4O)[C@H](O)c3ccc(c(Cl)c3)Oc3cc2cc(c3O[C@@H]2O[C@H](CO)[C@@H](O)[C@H](O)[C@H]2O[C@H]2C[C@](C)(N)[C@H](O)[C@H](C)O2)Oc2ccc(cc2Cl)[C@H]1O
4. COc1ccc(OC)c(CCNc2cccc3ccccc23)c1
5. O=C(CO)N(CCc1cccc(C(F)(F)F)c1)c1cccc2ccccc12

2
2
0.25
16
32

====

# Test system: Pseudomonas aeruginosa
# test_description: Evaluated for its antibacterial activity against Pseudomonas aeruginosa UC 6676
# Format: functional
quantity_kind: MIC

Some solved entries appear below for comparison.
- COc1ccc(OC)c(CCNc2cccc3ccccc23)c1: > 128 µg/mL
- CC(=O)CC(=O)N(CCc1cccc(C(F)(F)F)c1)c1cccc2ccccc12: > 128 µg/mL
- CO/N=C(\C(=O)N[C@@H]1C(=O)N2C(C(=O)O)=C(COC(C)=O)CS[C@H]12)c1csc(N)n1: 16 µg/mL
- CC(=O)C(C#N)C(=O)N(CCc1cccc(C(F)(F)F)c1)c1cccc2ccccc12 (stereo not given): > 128 µg/mL

Now take the following compound into account.
Per the record, FC(F)(F)c1cccc(CNc2cccc3ccccc23)c1 has MIC of > 128 µg/mL

====

# Test system: Enterococcus faecalis
# test_description: Evaluated for its antibacterial activity against Enterococcus faecalis UC 9217
# Type: functional
quantity_kind: MIC

- CSCC(=O)N(CCc1cccc(C(F)(F)F)c1)c1cccc2ccccc12: > 128 µg/mL
- C[S+]([O-])CC(=O)N(CCc1cccc(C(F)(F)F)c1)c1cccc2ccccc12 (stereo unspecified): > 128 µg/mL
- CC(=O)CC(=O)N(CCc1cccc(C(F)(F)F)c1)c1cccc2ccccc12: > 128 µg/mL

Provide reported MIC for each item, in the same order as listed.
1. O=C(CO)N(CCc1cccc(C(F)(F)F)c1)c1cccc2ccccc12
2. FC(F)(F)c1cccc(CCNc2ccc3ccccc3c2)c1
3. N#CCC(=O)N(CCc1cccc(C(F)(F)F)c1)c1cccc2ccccc12

> 128 µg/mL
> 1 µg/mL
> 128 µg/mL
